- testSystem: Rho (transcription termination factor ρ, wt);Psu (polarity suppression protein) (Escherichia coli;phage satellite P4, UniProt P0AG30;P05460 1-419;1-190, |)
- procedureDetails: fluorescence anisotropy; SBS; IC50 of Psu as inhibitor (very weak inhibition); dC15-blocked PBS; 2 mM ADP-BeF3; 20 mM HEPES pH 7.5, 150 mM KCl, 5% glycerol, 5 mM MgCl2, 0.5 mM TCEP; SBS assays with 10 uM unlabeled dC15 and 2 mM ADP-BeF3; probe 5 uM dC15-FAM or 2 uM rU12-FAM; temperature not stated
- cond: protein: recombinant;recombinant; tags: none;none; chain copies: 6;2; label: FAM (fluorescein); single strand
recordedEndpoint: IC50 (µM)
State the answer as a number, implicitly in µM.

Enquiry: Supply recorded IC50 for UUUUUUUUUUUU (ssRNA) [rU12-FAM] here.
Return: 299

Where these numbers come from: paper PMC11718236
